# study_system: UniProt:P00533
# Sequence (P00533 25-1210): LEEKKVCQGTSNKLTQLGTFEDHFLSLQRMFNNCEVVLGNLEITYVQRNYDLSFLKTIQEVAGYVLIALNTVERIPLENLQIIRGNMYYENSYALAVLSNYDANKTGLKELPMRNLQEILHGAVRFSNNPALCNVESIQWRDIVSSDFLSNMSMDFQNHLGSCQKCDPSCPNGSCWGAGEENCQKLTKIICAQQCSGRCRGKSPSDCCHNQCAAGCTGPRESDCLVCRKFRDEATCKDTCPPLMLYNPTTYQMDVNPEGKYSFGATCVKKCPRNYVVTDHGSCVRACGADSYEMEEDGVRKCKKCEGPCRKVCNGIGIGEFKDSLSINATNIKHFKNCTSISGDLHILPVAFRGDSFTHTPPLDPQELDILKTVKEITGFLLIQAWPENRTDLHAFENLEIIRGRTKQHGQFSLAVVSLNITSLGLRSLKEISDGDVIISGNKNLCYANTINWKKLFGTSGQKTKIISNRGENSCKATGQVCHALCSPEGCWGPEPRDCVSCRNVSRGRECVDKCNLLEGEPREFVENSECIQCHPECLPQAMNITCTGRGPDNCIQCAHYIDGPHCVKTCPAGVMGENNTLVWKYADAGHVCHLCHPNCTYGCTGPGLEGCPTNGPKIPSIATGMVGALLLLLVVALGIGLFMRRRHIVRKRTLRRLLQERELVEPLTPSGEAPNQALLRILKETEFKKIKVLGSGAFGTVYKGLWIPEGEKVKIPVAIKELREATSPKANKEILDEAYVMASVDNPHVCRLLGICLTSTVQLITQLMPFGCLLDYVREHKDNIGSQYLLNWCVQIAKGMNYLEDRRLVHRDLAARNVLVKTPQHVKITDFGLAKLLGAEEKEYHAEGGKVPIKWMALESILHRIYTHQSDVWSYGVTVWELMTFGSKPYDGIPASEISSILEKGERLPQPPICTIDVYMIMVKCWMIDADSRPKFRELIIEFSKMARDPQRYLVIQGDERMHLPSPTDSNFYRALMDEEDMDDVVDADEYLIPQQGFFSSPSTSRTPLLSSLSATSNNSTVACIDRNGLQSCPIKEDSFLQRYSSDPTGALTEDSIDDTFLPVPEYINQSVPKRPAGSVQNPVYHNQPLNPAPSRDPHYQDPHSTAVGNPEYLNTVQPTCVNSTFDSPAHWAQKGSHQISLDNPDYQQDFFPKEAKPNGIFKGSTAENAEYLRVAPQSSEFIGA
# assay_remarks: Biochemical EGFR kinase assay (Lance Ultra TR-FRET), wildtype
# measurement_setup: Km ATP; read-out: IC50 WT (nM) Km ATP
endpoint: IC50 (nM)
Give bare numbers, in nM.

Working through the 3 compounds below one at a time, give IC50 for each.
1. CN(C)Cc1ccc(CNc2cc(Nc3ccnc(-c4cnn(S(=O)(=O)C5CC5)c4)n3)ncc2C(=O)C2CC2)s1
2. CC(C)NC[C@H]1CC[C@H](CNc2cc(Nc3ccnc(-c4cnn(S(=O)(=O)C5CC5)c4)n3)ncc2C(=O)C2CC2)CC1
3. CC(C)Oc1cc(Nc2ccnc(-c3cnn(S(=O)(=O)C4CC4)c3)n2)ncc1NC(=O)C1CC1

239
7.5
123
